method: small-molecule microarray binders of probe aXIP, primary screen, biochemical, NeuroSMM set, 635/667 nm fluorescence (AID 1119);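 also: probe is the protein aXip251-270 applied at 1 µg/mL to compound-printed slides; binding of probe to printed compounds measured as 667 nm fluorescence plus signal to noise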
protocol_conditions: higher = more signal, called active from +8 up or from −8 down
Measured composite Z-score by item
readout_label: composite Z-score

COc1ccc(-c2ccccc2[C@@H]2N[C@H](C(=O)O)CC[C@H]2C)cc1 ... 0.3
NC(=O)[C@H]1[C@@H]2C(=O)O[C@@H](c3ccccc3)[C@@H](c3ccccc3)N2[C@@H](c2ccc(O)cc2)[C@]12C(=O)Nc1ccc(C#CCCO)cc12 ... 0.049
C/C(=N\O)C(=O)NCCCCCNC(=O)OCc1ccccc1 ... 0.179
C[N+](C)(C)CCCCNC(=O)[C@@H]1C[C@@H]2C(=O)N3CCC[C@H]3C(=O)N2[C@@H]1c1cccc(OCCO)c1 ... 2.6
CC(C)(C)OC(=O)CC[C@]1(C(=O)NCCN2CCOCC2)N=C(c2ccc(OCCCO)cc2)O[C@H]1c1ccccc1CN=[N+]=[N-] ... 0.192
COC(=O)[C@@]1(Cc2ccc(OC)cc2)[C@H]2c3cc(C(=O)N(C)C)n(CCc4ccc(OC)c(Br)c4)c3C[C@H]2CN1C(=O)c1ccccc1 ... -0.665
CC(C)[Si](OCCCNS(=O)(=O)c1ccc(Br)cc1)(C(C)C)C(C)C ... -0.495
CC(=O)NCCCC[C@@H]1NC(=O)[C@H]2C[C@@H](C(=O)NCCCCCCN(C)C)[C@@H](c3ccc(O)cc3)N2C1=O ... 1.44

All figures here come from PubChem BioAssay.
